Test: Cytotoxicity against human IGROV cells after 48 hrs by SRB assay
Format: functional
assay-metric: TGI (µM)

* C/C=C1\NC(=O)[C@H](Cc2ccccc2)NC(=O)[C@@H](C(C)C)NC(=O)[C@@H]([C@H](C)CC)NC(=O)[C@H](NC(=O)[C@H](NC(=O)[C@H](CCCN)NC(=O)[C@H]2CCCN2C(=O)[C@H](NC(=O)[C@@H](NC(=O)[C@@H](NC(=O)[C@H](NC(=O)CCCCC(C)(F)F)C(C)C)[C@@H](C)O)C(C)C)C(C)C)[C@H](C)CC)[C@H](C)OC(=O)[C@H](C(C)C)NC1=O | 1.54
* C/C=C1\NC(=O)[C@H](Cc2ccccc2)NC(=O)[C@@H](C(C)C)NC(=O)[C@@H]([C@H](C)CC)NC(=O)[C@H](NC(=O)[C@H](NC(=O)[C@H](CCCN)NC(=O)[C@H]2CCCN2C(=O)[C@H](NC(=O)[C@@H](NC(=O)[C@@H](NC(=O)[C@@H](CC2CCCCC2)NC(=O)CCCC(C)C)[C@@H](C)O)C(C)C)C(C)C)[C@H](C)CC)[C@H](C)OC(=O)[C@H](C(C)C)NC1=O | 8.32
